tested-system: T1, soluble KDR (VEGF Receptor 2 D1-7, Cat. #676490, Calbiochem) (human, UniProt P35968 20-764)
T1 construct: extracellular domain; Bought reagent; also called soluble human KDR; immobilized soluble KDR
T1 sequence (P35968 20-764): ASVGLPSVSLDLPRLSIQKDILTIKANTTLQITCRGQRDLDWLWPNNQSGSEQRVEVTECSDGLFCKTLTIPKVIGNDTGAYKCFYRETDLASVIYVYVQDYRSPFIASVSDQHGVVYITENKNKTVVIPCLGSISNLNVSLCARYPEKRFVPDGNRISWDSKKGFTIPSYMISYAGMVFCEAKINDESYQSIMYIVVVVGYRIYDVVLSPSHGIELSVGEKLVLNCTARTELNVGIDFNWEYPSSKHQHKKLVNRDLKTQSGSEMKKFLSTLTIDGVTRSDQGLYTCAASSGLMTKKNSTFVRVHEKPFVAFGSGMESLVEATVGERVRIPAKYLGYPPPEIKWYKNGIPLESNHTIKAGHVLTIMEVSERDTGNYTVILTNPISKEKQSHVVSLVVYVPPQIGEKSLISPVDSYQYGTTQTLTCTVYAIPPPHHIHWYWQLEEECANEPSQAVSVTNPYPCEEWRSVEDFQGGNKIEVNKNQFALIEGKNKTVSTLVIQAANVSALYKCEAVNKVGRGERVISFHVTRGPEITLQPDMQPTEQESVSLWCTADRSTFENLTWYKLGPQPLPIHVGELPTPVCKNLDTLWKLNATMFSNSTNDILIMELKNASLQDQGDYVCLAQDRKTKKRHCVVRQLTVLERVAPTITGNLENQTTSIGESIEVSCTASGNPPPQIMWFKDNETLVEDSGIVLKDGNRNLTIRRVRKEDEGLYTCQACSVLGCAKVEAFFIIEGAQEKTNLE
protocol-text: ELISA, plate-coated soluble KDR 250 ng/mL, hybridoma supernatant 1:5
measured-endpoint: KDR OD(450 nm) (OD450)
Write down the numeric answer in OD450 and omit the unit.

anti-KDR monoclonal antibody 32G7 (antibody, V domains shown, Fully human mAb from XenoMouse (IgG2 or IgG4 strain); hybridoma supernatant) VH: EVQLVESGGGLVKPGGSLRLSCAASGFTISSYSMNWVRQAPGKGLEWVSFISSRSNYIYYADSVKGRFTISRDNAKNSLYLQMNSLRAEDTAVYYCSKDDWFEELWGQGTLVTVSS VL: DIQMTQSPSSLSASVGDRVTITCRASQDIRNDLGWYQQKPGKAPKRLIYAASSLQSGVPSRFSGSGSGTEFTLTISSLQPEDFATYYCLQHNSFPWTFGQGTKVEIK has a reported KDR OD(450 nm) of 1.07

Note to self: KDR OD(450 nm) recorded for anti-KDR monoclonal antibody 33C3 (antibody, V domains shown, Fully human mAb from XenoMouse (IgG2 or IgG4 strain); hybridoma supernatant) VH: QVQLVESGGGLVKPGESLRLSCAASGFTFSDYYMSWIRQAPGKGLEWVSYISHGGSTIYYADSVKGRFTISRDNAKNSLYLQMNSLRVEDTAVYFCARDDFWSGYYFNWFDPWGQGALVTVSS VL: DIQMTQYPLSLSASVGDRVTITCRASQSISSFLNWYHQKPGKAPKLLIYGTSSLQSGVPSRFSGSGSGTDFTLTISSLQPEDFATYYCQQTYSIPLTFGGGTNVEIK was 1.15

The value of KDR OD(450 nm) measured for the binder anti-KDR monoclonal antibody 24B3 (antibody, V domains shown, Fully human mAb from XenoMouse (IgG2 or IgG4 strain); hybridoma supernatant) VH: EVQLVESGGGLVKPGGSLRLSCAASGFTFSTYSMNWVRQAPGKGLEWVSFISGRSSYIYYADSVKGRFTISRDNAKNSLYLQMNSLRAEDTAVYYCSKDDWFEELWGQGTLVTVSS VL: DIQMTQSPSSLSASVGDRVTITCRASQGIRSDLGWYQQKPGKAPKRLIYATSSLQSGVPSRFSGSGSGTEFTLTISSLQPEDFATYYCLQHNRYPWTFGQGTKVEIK turned out to be 6

Note to self: KDR OD(450 nm) recorded for anti-KDR monoclonal antibody 33E1 (antibody, V domains shown, Fully human mAb from XenoMouse (IgG2 or IgG4 strain); hybridoma supernatant) VH: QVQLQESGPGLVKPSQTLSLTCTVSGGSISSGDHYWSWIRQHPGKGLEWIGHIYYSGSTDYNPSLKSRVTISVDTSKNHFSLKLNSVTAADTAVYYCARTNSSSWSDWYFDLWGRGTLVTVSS VL: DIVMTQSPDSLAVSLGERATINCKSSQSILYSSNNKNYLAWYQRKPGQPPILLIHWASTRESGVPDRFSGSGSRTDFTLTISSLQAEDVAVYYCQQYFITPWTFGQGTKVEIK was 4.55

KDR OD(450 nm) reading for anti-KDR monoclonal antibody 21H6 (antibody, V domains shown, Fully human mAb from XenoMouse; hybridoma supernatant) VH: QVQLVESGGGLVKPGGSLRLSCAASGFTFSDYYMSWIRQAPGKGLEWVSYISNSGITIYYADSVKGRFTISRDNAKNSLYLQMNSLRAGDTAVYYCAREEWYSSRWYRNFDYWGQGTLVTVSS VL: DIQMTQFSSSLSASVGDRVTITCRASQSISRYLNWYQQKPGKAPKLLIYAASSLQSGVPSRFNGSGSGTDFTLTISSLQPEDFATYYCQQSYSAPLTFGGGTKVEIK : 0.62
